Values from patent US20130101549A1

# target_entity: T1, human HER2/ErbB2 on cells (human, UniProt P04626 23-1255)
# T1 construct: whole, on cells; also called hHER2/ErbB2; wild type HER2/ErbB
# assay_method_text: flow cytometry on CHO cells expressing human HER2
pEC50: −log10 of the molar value.
value_kind: pEC50

>>> numeric_value("BIIB67F10 Fab (Fab, V domains shown, Soluble human Fab from a naive phagemid Fab library) VH: EVQLLESGGGLVQPGGSLRLSCAASGFTFSPYMMVWVRQAPGKGLEWVSWISPSGGYTFYADSVKGRFTISRDNSKNTLYLQMNSLRAEDTAVYYCAYGTYPLTYWGQGTLVTVSS VL: QSELTQTPSVSVSPGQTASITCSGDKLGDKYVSWFQLKPGQSPLLVIYQDSKWPSGIPERFSGSNSGNTATLTISGTQATDEADYYCQVWDISHVVFGGGTKLTVL")
8.70
